experiment notes: qHTS of pediatric cancer cell lines to identify multiple opportunities for drug repurposing: Confirmatory screen for BT-37 cells (AID 1347117);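 also: viability measured after 48 h of compound exposure; nearly all actives have a fitted effect of over 55% in size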
condition set: BT-37 pediatric cancer cells, viability; series mostly up to 45.9 µM
Results filed as inconclusive are left out. The source made the active and inactive calls. Calls follow the shape of the dose curve; as a rule, active = well fitted cell-killing curve with a large enough effect; inconclusive = small, poorly fitted or top-dose-only effect; inactive = no such curve, though single readings can be large or run the other way.
Choose the fitting class; nothing outside active, inactive is accepted.

// below: answered compounds
C[C@]12CCC(=O)C=C1CC[C@@H]1[C@@H]2[C@@H](O)C[C@@]2(C)[C@H]1CC[C@]2(O)C(=O)COC(=O)CCC(=O)O = inactive
CO[C@@H]1[C@@H](OC)[C@H](C)[C@@](O)(CC(=O)O)O[C@H]1[C@H](C)[C@H]1O[C@@]2(CC[C@@](C)([C@H]3CC[C@@](C)([C@@H]4O[C@@H]([C@H]5O[C@](C)(O)[C@H](C)C[C@@H]5C)C[C@@H]4OC4C[C@H](OC)[C@@H](OC)[C@H](C)O4)O3)O2)C[C@H](O)[C@H]1C (stereo partly drawn) = active
CN(C)CCN(Cc1ccsc1)c1ccccn1 = inactive
CCCCC(CC)CNC(=O)CC(C)OC(=O)CCC(=O)O (stereo not drawn) = inactive

## Input What did the test return for "Cc1cc(OCCOCC[N+](C)(C)Cc2ccccc2)ccc1C(C)(C)CC(C)(C)C" ?
## Output active

## Input What did the test return for "CC[C@@]1(O)C(=O)OCc2c1cc1n(c2=O)Cc2c-1nc1ccccc1c2/C=N/OC(C)(C)C" ?
## Output active

## Input What did the test return for "Nc1ccc2cc3ccc(N)cc3nc2c1" ?
## Output active

## Input What did the test return for "CCOC(=O)O[C@]1(C(=O)OCCl)CC[C@H]2[C@@H]3CCC4=CC(=O)C=C[C@]4(C)[C@H]3[C@@H](O)C[C@@]21C" ?
## Output inactive
